For each of the compounds below, state its solubility at 1 h.
# assay-overview: Solubility in fasted-state simulated intestinal fluid (FaSSIF)
# Assay type: physicochemical
# condition: FaSSIF, pH 6.5, fassif, kinetic from dmso stock, FaSSIF pH 6.5, 300 µM sample solution, room temperature
Answers are plain numbers, in µM.

Take a look at these entries with their results.
C[C@H](CCCC(O)c1cncc2c1OC(F)(F)O2)[C@H]1CC[C@H]2[C@H]3[C@H](CC[C@]12C)[C@@]1(C)CC[C@H](O)[C@H](O)[C@@H]1CC3(F)F (some centres unmarked)
19.5
COc1cc(OC)c([C@@H](O)CCC[C@@H](C)[C@H]2CC[C@H]3[C@H]4[C@H](CC[C@]23C)[C@@]2(C)CC[C@H](O)[C@H](O)[C@@H]2CC4(F)F)c(F)n1 (single isomer, unassigned)
305
COc1c(F)cccc1C(O)CCC[C@@H](C)[C@H]1CC[C@H]2[C@H]3[C@H](CC[C@]12C)[C@@]1(C)CC[C@H](O)[C@H](O)[C@@H]1CC3(F)F (some centres unmarked)
277
C[C@H](CCCC(O)c1cccc2ncn(C)c12)[C@H]1CC[C@H]2[C@H]3[C@H](CC[C@]12C)[C@@]1(C)CC[C@H](O)[C@H](O)[C@@H]1CC3(F)F (single isomer, unassigned)
18.2

// below: solubility at 1 h requested for another compound
Item C[C@H](CCCC(C)(C)O)[C@H]1CC[C@@]2(C)C3=C(CC[C@]12C)[C@@]1(C)CC[C@H](O)C(C)(C)[C@@H]1CC3 [Comparative compound 1, reference compound] has what recorded solubility at 1 h?
105

###

# assay-overview: Metabolic stability experiment of mouse liver microsomes
# Assay type: in vitro ADME
experimental-endpoint: half-life at 1 µM

Answered examples (3):
C[C@H](CCCC(O)c1cccc(F)c1)[C@H]1CC[C@H]2[C@H]3[C@H](CC[C@]12C)[C@@]1(C)CC[C@H](O)[C@H](O)[C@@H]1CC3(F)F (stereo partly shown)
> 3.1 h
COc1ccc(C(O)CCC[C@@H](C)[C@H]2CC[C@H]3[C@H]4[C@H](CC[C@]23C)[C@@]2(C)CC[C@H](O)[C@H](O)[C@@H]2CC4(F)F)cc1 (stereo partly shown)
1.8 h
C[C@H](CCCC(O)c1c(F)cccc1F)[C@H]1CC[C@H]2[C@H]3[C@H](CC[C@]12C)[C@@]1(C)CC[C@H](O)CC1CC3(F)F (stereo in doubt)
2.26 h

Reported half-life at 1 µM, molecule COc1ccccc1C(O)CCC[C@@H](C)[C@H]1CC[C@H]2[C@H]3[C@H](CC[C@]12C)[C@@]1(C)CC[C@H](O)[C@H](O)[C@@H]1CC3(F)F (stereo partly shown) : ____
2.19 h
